Biological target: recombinant human latent myostatin (human, UniProt O14793 24-375, biotinylated (in the Octet pH assay only))
Assay: cell-based or functional assay
quantity-name: IC50 (nM) Latent + mTLL2
Field: numeric (nM). Do not append units.

Problem: Would you kindly share the measured IC50 (nM) Latent + mTLL2 for Ab121 (antibody, human IgG4 S228P, kappa, V domains shown) VH: QVTLRESGPALVKPTQTLTLTCTVSGFSFSTSGMVVNWIRQPPGKALEWLAMIDWDADNIVYNSALKSRLTISKDTSKNQVVLTMTNMDPVDTATYYCAKDTGSGWFDAFDIWGQGTMVTVSS VL: DIVMTQSPDSLAVSLGERATINCKSSQSVLYSSTNQNFLAWYQQKPGQPPKLLIYQASTLQNGVPDRFSGSGSGTDFTLTISSLQAEDVAVYYCQQYLTTPYTFGGGTKVEIKR ?
Solution: 0.386

Problem: Would you kindly share the measured IC50 (nM) Latent + mTLL2 for Ab134 (antibody, human IgG4 S228P, kappa, V domains shown) VH: EVQLVESGGGLVQPGGSLRLSCAASGSAFSSYGMSWVRQAPGKGLELVASINSNGGSTYYPDSVKGRFTISRDNAKNSLYLQMNSLRAEDTAVYYCARDLLVEFLKWSHYYGMDVWGQGTTVTVSS VL: DIVMTQSPLSLPVTPGEPASISCRSSQSLLHSSGHNFLHWYLQKPGQSPQLLIYEVSNRVSGVPDRFSGSGSGTDFTLKISRVEAEDVGVYYCMQQTQYPPTFGGGTKVEIKR ?
Solution: 0.631

Problem: Would you kindly share the measured IC50 (nM) Latent + mTLL2 for Ab141 (antibody, human IgG4 S228P, kappa, V domains shown) VH: EVQLVESGGGLVQPGGSLRLSCAASGFTFSSYGMSWVRQAPGKGLELVASFTGSGGAYYPDSVKGRFTISRDNAKNSLYLQMNSLRAEDTAVYYCARDLLIRFLEWSHYYGMDVWGQGTTVTVSS VL: DIVMTQSPLSLPVTPGEPASISCRSSQSLLHSSGHNFLHWYLQKPGQSPQLLIYEVSNRVSGVPDRFSGSGSGTDFTLKISRVEAEDVGVYYCMQQTQYPGTFGGGTKVEIKR ?
Solution: 0.139

Problem: Would you kindly share the measured IC50 (nM) Latent + mTLL2 for Ab107 (antibody, human IgG4 S228P, kappa, V domains shown) VH: EVQLVESGGGLVQPGGSLRLSCAASGSAFSSYGMSWVRQAPGKGLELVASINSNGGSTYYPDSVKGRFTISRDNAKNSLYLQMNSLRAEDTAVYYCARDQLVRFLEWSHYYGMDVWGQGTTVTVSS VL: DIVMTQSPLSLPVTPGEPASISCRSSQSLLHSSGHNFLHWYLQKPGQSPQLLIYAGSNRPSGVPDRFSGSGSGTDFTLKISRVEAEDVGVYYCAHATQLPHTFGGGTKVEIKR ?
Solution: 0.135
